Where these numbers come from: patent US8329706B2

target: human orexin-1 receptor (Homo sapiens, UniProt O43613); assay: FLIPR intracellular calcium assay, orexin receptor antagonistic activity (OX1); details: CHO cells expressing human orexin-1 receptor; agonist 3 nM orexin-A; normalized to on-plate reference; * geomean n = 5, *2 geomean n = 2
Sequence (O43613 whole entry): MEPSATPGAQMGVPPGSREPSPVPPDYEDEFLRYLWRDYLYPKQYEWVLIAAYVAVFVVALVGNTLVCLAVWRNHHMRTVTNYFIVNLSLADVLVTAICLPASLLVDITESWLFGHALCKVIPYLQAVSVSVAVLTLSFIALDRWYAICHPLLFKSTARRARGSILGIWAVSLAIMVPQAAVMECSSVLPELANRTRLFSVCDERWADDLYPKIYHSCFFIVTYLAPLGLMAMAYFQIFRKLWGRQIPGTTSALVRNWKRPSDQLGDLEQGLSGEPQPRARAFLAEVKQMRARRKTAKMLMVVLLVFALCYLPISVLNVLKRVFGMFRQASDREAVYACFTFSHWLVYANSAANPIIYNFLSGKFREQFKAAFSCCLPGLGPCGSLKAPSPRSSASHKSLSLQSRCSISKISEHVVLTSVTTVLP
Measure: pIC50
When answering, recall that pIC50 equals minus log10 of the concentration in mol/L, and write that number alone.

Sample answers from the record:
[[record]]
compound = "COc1cccc(OC)c1C1OC(C)(C)C(=O)N1Cc1nc2ccccc2n1C (stereo not shown)"
measure = "pIC50"
experimental_value = 7.19

[[record]]
compound = "COc1cccc(OC)c1C1OC(C)(C)C(=O)N1Cc1ccc(OC(F)(F)F)c(Cl)c1 (stereo not shown)"
measure = "pIC50"
experimental_value = 7.60

[[record]]
compound = "COc1cccc(OC)c1C1OC(C)(C)C(=O)N1Cc1ccc(Oc2ncccn2)cc1 (stereo not shown)"
measure = "pIC50"
experimental_value = 5.52


For the next question, use this compound.
Q: Quote pIC50 reported for COc1cccc(OC)c1C1O[C@H](C)C(=O)N1Cc1ccc(Oc2ccccc2)cc1 (stereo partly shown) please.
A: 6.66

###

target: human orexin-2 receptor (Homo sapiens, UniProt O43614); experiment: FLIPR intracellular calcium assay, orexin receptor antagonistic activity (OX2); settings: CHO cells expressing human orexin-2 receptor; agonist 3 nM orexin-A; normalized to on-plate reference; * geomean n = 5, *2 geomean n = 2
Sequence (O43614 whole entry): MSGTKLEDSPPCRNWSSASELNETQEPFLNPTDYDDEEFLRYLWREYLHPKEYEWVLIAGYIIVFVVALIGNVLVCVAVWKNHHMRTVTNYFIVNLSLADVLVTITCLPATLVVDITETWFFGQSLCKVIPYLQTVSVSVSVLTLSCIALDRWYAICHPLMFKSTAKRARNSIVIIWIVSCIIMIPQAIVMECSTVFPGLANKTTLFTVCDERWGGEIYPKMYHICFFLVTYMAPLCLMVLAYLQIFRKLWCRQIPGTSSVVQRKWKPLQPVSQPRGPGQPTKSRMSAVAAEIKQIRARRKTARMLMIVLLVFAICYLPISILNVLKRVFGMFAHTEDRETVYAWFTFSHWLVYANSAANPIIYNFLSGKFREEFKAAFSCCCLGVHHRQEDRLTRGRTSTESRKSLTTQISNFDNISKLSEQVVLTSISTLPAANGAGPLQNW
Measured pIC50, listed per entry for reference.
When answering, recall that pIC50 equals minus log10 of the concentration in mol/L, and write that number alone.

[[record]]
compound = "CCCOc1ccc(CN2C(=O)C(C)(C)OC2c2c(OC)cccc2OC)cc1 (stereo not drawn)"
experimental_value = 6.32


Q: // fetch pIC50; item: COc1cccc(OC)c1C1OCC(=O)N1Cc1ccc(Cl)c(F)c1 (stereo not drawn) ; system: human orexin-2 receptor (Homo sapiens, UniProt O43614)
A: 6.10

Q: // fetch pIC50; item: COc1cccc(OC)c1C1OC(C)(C)C(=O)N1Cc1ccc(OC(F)F)cc1 (stereo not drawn) ; system: human orexin-2 receptor (Homo sapiens, UniProt O43614)
A: 6.03

Q: // fetch pIC50; item: CCOc1ccccc1C1OCC(=O)N1Cc1ccc(Cl)cc1 (stereo not drawn) ; system: human orexin-2 receptor (Homo sapiens, UniProt O43614)
A: 6.16

###

Measured IC50, listed per entry for reference.
molecular target: human orexin-1 receptor (Homo sapiens, UniProt O43613); assay: FLIPR intracellular calcium assay, orexin receptor antagonistic activity (OX1); conditions: CHO cells expressing human orexin-1 receptor; agonist 3 nM orexin-A; normalized to on-plate reference; * geomean n = 5, *2 geomean n = 2
Write the answer as a number in nM, unit excluded.

[[record]]
molecule = "CCOc1ccccc1C1OCC(=O)N1Cc1cccc(OC(F)(F)F)c1 (centres unmarked) [Example 7]"
measure = "IC50"
unit_info = "nM"
experimental_value = 6810

[[record]]
molecule = "CCOc1ccccc1C1OCC(=O)N1Cc1c(F)ccc(F)c1Cl (centres unmarked) [Example 16]"
measure = "IC50"
unit_info = "nM"
experimental_value = 590

[[record]]
molecule = "COc1cccc(OC)c1C1OCC(=O)N1Cc1c(C)cccc1C (centres unmarked) [Example 44]"
measure = "IC50"
unit_info = "nM"
experimental_value = 1760

[[record]]
molecule = "CCOc1ccccc1C1OCC(=O)N1Cc1ccccc1Cl (centres unmarked) [Example 45]"
measure = "IC50"
unit_info = "nM"
experimental_value = 1740


Q: Quote IC50 reported for COc1cccc(OC)c1C1OCC(=O)N1Cc1ccc(OC(F)F)cc1 (centres unmarked) [Example 49] please.
A: 2990
